Recorded GI50 by entry
system: LOX IMVI; test: NCI tumour cell line growth inhibition, 48 h
Active and inactive are the calls of the source. Rule as the data show it: active = GI50 up to about 1.1 µM and inactive = higher.

| COMPOUND | TARGET OF ASSAY | GI50 |
| --- | --- | --- |
| O=C(CN(c1ccccc1)c1ccccc1)n1nnc2ccccc21 | LOX IMVI | 24.2 µM (inactive) |
| CCCCCCCC/C=C1\CCC(CN(C)C)C1=O (configuration not stated) | LOX IMVI | 1.92 µM (inactive) |
| O=C(Nc1ccc(Cl)c(Cl)c1)OCCN1c2ccccc2Sc2ccccc21 | LOX IMVI | > 10 µM (inactive) |
| Cc1ccc(C(=O)C2CC3(CCC2(O)c2ccc(C)cc2)CC(=O)Nc2ccccc2C3=O)cc1 (configuration not stated) | LOX IMVI | > 100 µM (inactive) |
| C=CC(=O)Nc1ccc(NC(=O)C=C)c2c1C(=O)c1ccccc1C2=O | LOX IMVI | 5.07 µM (inactive) |
| O=[PH](O)c1ccsc1 | LOX IMVI | > 100 µM (inactive) |
| O=C(Nc1ccc2ccccc2c1)Nn1cnnc1 | LOX IMVI | > 100 µM (inactive) |
| C[C@]12CC[C@H](O)CC1=CC[C@@H]1C2CC[C@]2(C)Nc3c(cnn3-c3ccc(F)cc3)CC12 (some centres not stated) | LOX IMVI | 3.2 µM (inactive) |
| Cc1cc(N(CCC#N)CCC#N)ccc1/C=N/NC(=O)c1ccccc1 | LOX IMVI | 8.02 µM (inactive) |
| CCCCCCCCCCCCOC(=S)NC | LOX IMVI | 14.1 µM (inactive) |
| COC1C=C(Nc2cccc(Cl)c2)C(=O)C1 (configuration not stated) | LOX IMVI | > 100 µM (inactive) |
| C/C(=N\NC(=S)N1CCN(c2ccccn2)CC1)c1ncccn1 | LOX IMVI | 0.0986 µM (active) |
